target: AMP-activated protein kinase, AMPK (Homo sapiens) (UniProt P54646+O43741+P54619+Q9UGJ0+Q9Y478+Q13131+Q9UGI9); assay: AMP-dependent Kinase enzyme assay. An in vitro enzyme assay that detects ADP turnover that is directly proportional to AMPK activity. This uses naive AMPK that is activated during the assay with MK-8722; assay type: functional; set-up: scale not given: direction of the effect not stated beside the values; settings: 30 µM
For each record, write down the corresponding Percent Effect.
Provide the reading as a plain figure in %.

Requested read-out: Percent Effect. Entry: `CC(=O)N1CCN([C@@H]2CC[C@@H](NC(=O)c3cncc(C)c3)[C@H]2O)CC1`
8.93

Request the reported Percent Effect associated with Cc1nc(CN2CCCCC2Cn2cncn2)nc2ccccc12 (stereo not given)
-3.54

// Percent Effect lookup, key: `COc1ccc(Br)c(C(=O)N2CCC(c3n[nH]c(C4CC4)n3)CC2)c1`
1.39

Name the reported Percent Effect value associated with the compound `Cn1cc(CN2CC3(CCN(C(=O)c4ccoc4)C3)C2)cn1`
4.12

I'd like to know its Percent Effect. The compound in question is Cc1cc(C2CCCN2C(=O)NCc2cccc(F)c2)on1 (stereo not given)
-2.75

Query (compound): CCC1(CO)CCCN(c2ncccc2C#N)C1 (stereo not given) ; field requested: Percent Effect
-0.35

Can you share its Percent Effect? I mean this compound: `COCCN1C[C@@H]2CCCO[C@@H]2[C@H](NC(=O)c2cnccn2)C1`
1.63

Could you share which Percent Effect value was measured for `CN(Cc1cnn(C)c1)C(=O)c1ccc(=O)n(C)n1` ?
2.81

Any idea what Percent Effect was measured for `Cc1nn(C)c(N2CCOCC2)c1CNCc1nccs1` ?
-1.27

Please report the recorded Percent Effect for `CCOc1ccccc1OC1CCN(C(=O)c2ccc(=O)[nH]n2)CC1` .
2.58

Please look up its Percent Effect: Cc1noc(C)c1C(=O)NCC(C)N(C)C (stereo not given)
-3.02

Return reported Percent Effect; argument: Cc1cc(C2CCCN(CCCNS(C)(=O)=O)C2)n[nH]1 (stereo not given)
-4.24

What Percent Effect value was documented for this compound, Cc1cc(F)ccc1CN1CCC(O)(CN2CCCCC2)C1 (stereo not given) ?
-7.83

If you can, please state the reported Percent Effect value of Cc1cc(C)c(CNC(=O)NCC2CCCN2C)c(=O)[nH]1 (stereo not given) .
-1.76

Dear colleague, I am looking for the recorded Percent Effect of the following compound: `COc1cccc(-n2c(C)cc(C(=O)O)c2C)c1`
-3.83

Look at this compound and give its reported Percent Effect. `O=C(NCc1cnc2n1CCN(c1ncc(F)cn1)CC2)C1CCC1`
0.174

Fill in the blank: the reported Percent Effect of `COCc1ccccc1CNc1nnc(C)c(C)c1C#N` is ____.
-21.1

Endpoint output: Percent Effect of CC(NC(=O)C1=NN(C)C(=O)CC1)c1ccc(F)cc1F (stereo not given) . Value?
16.9

Please give the measured Percent Effect for this compound: `O=C(Nc1ccccn1)N(CCO)Cc1ccsc1`
4.91

Give its Percent Effect value. Item: `NC(=O)C1CCN(c2nc3nccc(-c4ccccc4)c3c(=O)[nH]2)CC1`
-6.46

Record request: Percent Effect value, item `CCn1c(Cn2cncn2)nnc1C1CCN(C(=O)CCSC)CC1`
-5.34

Can you share its Percent Effect? I mean this compound: CCCNCC1(O)CCCN(Cc2cccc(C)c2)C1=O (stereo not given)
3.08

Could you share which Percent Effect value was measured for CC(C)S(=O)(=O)NCC1CCCN(C(=O)c2cccnc2)C1 (stereo not given) ?
-1.03

Using the record for `COc1ccc(CCN2CCN(C(=O)c3scnc3C)CC2)cc1` , report its Percent Effect.
2.58

Given the compound `Cc1nccc(-c2cccc(NCC(=O)N3CCNC3=O)c2)n1` , what is its reported Percent Effect?
-11.7
